tested on: MIA PaCa-2; details: OFD1 knockdown: yes (Tet-on shOFD1, 100 ng/mL doxycycline)
Metric Name: IC50 cell viability (µM)

Molecule	IC50 cell viability, µM
CCc1ccc(CCOc2ccc(CC3SC(=O)NC3=O)cc2)nc1 (centres undefined) [S2590]	3.16
CN1CCN(c2nc(C3=C(c4c[nH]c5ccccc45)C(=O)NC3=O)c3ccccc3n2)CC1 [S2791]	20.1
CCCCCOC(=O)Nc1nc(=O)n([C@@H]2O[C@H](C)[C@@H](O)[C@H]2O)cc1F [S1156]	34.3

1. COc1c(C)c2c(c(O)c1C/C=C(\C)CCC(=O)O)C(=O)OC2 [S2487]
2. NC(=O)NO [S1896]
3. CC1(C)CCC(c2ccc(Cl)cc2)=C(CN2CCN(c3ccc(C(=O)NS(=O)(=O)c4ccc(N[C@H](CCN5CCOCC5)CSc5ccccc5)c(S(=O)(=O)C(F)(F)F)c4)cc3)CC2)C1 [S1001]
4. S=c1[nH]cnc2nc[nH]c12 [S1305]
Number of molecules to sort: 4. Sort criterion: IC50 cell viability, ascending. Use the labels to give the ranking in the order requested.
2, 1, 3, 4
(2: 4.33 µM, 1: 9.95 µM, 3: 19 µM, 4: 27.7 µM)

A. CCOc1cc2ncc(C#N)c(Nc3ccc(F)c(Cl)c3)c2cc1NC(=O)/C=C/CN(C)C [S1392]
B. C[C@]12CC[C@@H]3c4ccc(O)cc4CC[C@H]3[C@@H]1CCC2=O [S1665]
C. CN(CCOc1ccc(CC2SC(=O)NC2=O)cc1)c1ccccn1 (centres undefined) [S2556]
D. CCCS(=O)(=O)Nc1ccc(F)c(C(=O)c2c[nH]c3ncc(-c4ccc(Cl)cc4)cc23)c1F [S1267]
Number of molecules to sort: 4. Sort criterion: IC50 cell viability, ascending. Use the labels to give the ranking in the order requested.
C, D, B, A
(C: 7.63 µM, D: 17.6 µM, B: 37.8 µM, A: 56.4 µM)

P. Cc1cc(Nc2cc(N3CCN(C)CC3)nc(Sc3ccc(NC(=O)C4CC4)cc3)n2)n[nH]1 [S1048]
Q. CCCCCCNC(=O)n1cc(F)c(=O)[nH]c1=O [S1289]
R. COc1cccc2c1C(=O)c1c(O)c3c(c(O)c1C2=O)CC(O)(C(=O)CO)CC3OC1CC(N)C(O)C(C)O1 (centres undefined) [S1208]
S. CN(C)CCOc1ccc(/C(=C(/CCCl)c2ccccc2)c2ccccc2)cc1 [S1776]
T. CC[C@@H]1C(=O)N(C)c2cnc(Nc3ccc(C(=O)N[C@H]4CC[C@H](N5CCN(CC6CC6)CC5)CC4)cc3OC)nc2N1C(C)C [S2235]
Falling order of IC50 cell viability, please. Use the labels to give the ranking in the order requested.
S, P, T, Q, R

I. Cn1cnc([N+](=O)[O-])c1Sc1ncnc2[nH]cnc12 [S1721]
II. NC(=O)c1ccc(I)c([N+](=O)[O-])c1 [S1087]
III. Oc1ncnc2[nH]ncc12 [S1630]
IV. Cc1ccc(C(=O)N(CCCN)[C@@H](c2nc3cc(Cl)ccc3c(=O)n2Cc2ccccc2)C(C)C)cc1 [S1452]
V. COCCCOc1cc(C[C@@H](C[C@H](N)[C@@H](O)C[C@H](C(=O)NCC(C)(C)C(N)=O)C(C)C)C(C)C)ccc1OC [S2199]
Falling order of IC50 cell viability, please. Use the labels to give the ranking in the order requested.
II, I, III, V, IV
